# tested system: recombinant EphB4 (Homo sapiens)
# Construct: recombinant active EphB4 (amino acids 563-987; Swiss-Prot Acc; No. P54760); purchased ProQinase GmbH 0178-0000-3
# Sequence (P54760 563-987): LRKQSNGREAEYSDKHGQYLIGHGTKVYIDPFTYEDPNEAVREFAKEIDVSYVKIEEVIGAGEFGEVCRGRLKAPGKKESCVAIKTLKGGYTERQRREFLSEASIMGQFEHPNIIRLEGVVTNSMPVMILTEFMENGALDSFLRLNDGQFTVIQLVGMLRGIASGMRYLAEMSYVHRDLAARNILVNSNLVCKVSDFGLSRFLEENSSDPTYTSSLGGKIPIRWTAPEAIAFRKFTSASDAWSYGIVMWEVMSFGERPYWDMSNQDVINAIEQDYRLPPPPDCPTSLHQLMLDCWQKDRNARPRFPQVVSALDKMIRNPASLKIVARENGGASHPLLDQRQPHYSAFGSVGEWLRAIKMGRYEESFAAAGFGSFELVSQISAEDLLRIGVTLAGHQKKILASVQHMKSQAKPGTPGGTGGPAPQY
# assay remarks: In vitro EphB4 enzyme assay (Alphascreen)
# Assay type: biochemical
# experimental setup: compound preparation: Genesis (aqueous dilution)
measurement name: IC50 (nM)

| molecule | unit string | IC50 |
| --- | --- | --- |
| CN(c1ccnc(Nc2cc(N3CCOCC3)nc(N3CCOCC3)c2)n1)c1ccc(F)c(Cl)c1F [Example 2.1] | nM | 1120 |

(a) Cc1ccc(CO)cc1N(C)c1ccnc(Nc2cc(N3CCOCC3)cc(N3CCOCC3)n2)n1 [Example 4.2]
(b) Cc1ccc(CO)cc1N(C)c1ccnc(Nc2cc(Cl)cc(N3CCOCC3)n2)n1 [Example 3]
(c) CN(c1ccnc(Nc2cc(N3CCOCC3)nc(N3CCOCC3)n2)n1)c1ccc(F)c(Cl)c1F [Example 2.4]
(d) CN(c1ccnc(Nc2cc(N3CCOCC3)cc(N3CCOCC3)n2)n1)c1ccc(F)c(Cl)c1F [Example 2.2]
(e) CN(c1ccnc(Nc2cc(Cl)cc(N3CCOCC3)n2)n1)c1ccc(F)c(Cl)c1F [Example 1]
// sort entries: IC50, high to low Use the labels to give the requested order. e, c, d, a, b
(e: 38300 nM, c: 6270 nM, d: 808 nM, a: 456 nM, b: 198 nM)

(I) Cc1ccc(CO)cc1N(C)c1ccnc(Nc2cc(Cl)nc(N3CCOCC3)c2)n1 [Example 4.3]
(II) CN(c1ccnc(Nc2cc(Cl)nc(N3CCOCC3)c2)n1)c1ccc(F)c(Cl)c1F [Example 2.3]
Would you mind telling me which has the lower recorded IC50 between I and II ? # respond with the chosen item's label I
(I: 473 nM, II: 1780 nM)
